Experiment summary: Cmax in ICR mouse at 3 mg/kg, iv measured upto 24 hrs by LC-MS/MS analysis
Type: ADME, organism-based
Settings: in vivo
Recorded metric: Cmax
Units required after the number.

What value of Cmax has been reported for the following compound? C=CC(=O)Nc1ccccc1-c1ccc(NC(=O)Cc2ccc(S(=O)(=O)CC)cc2)cc1Cl
2000 ng/mL

###

Experiment summary: AUClast in ICR mouse at 3 mg/kg, iv measured upto 24 hrs by LC-MS/MS analysis
Assay type: ADME, organism-based
Settings: in vivo
Recorded metric: AUC(0-t) at 24 h (ng·h/mL)
Report the figure in ng·h/mL without appending any unit label.

What value of AUC(0-t) at 24 h has been recorded for this entry: C=CC(=O)Nc1ccccc1-c1ccc(NC(=O)Cc2ccc(S(=O)(=O)CC)cc2)cc1Cl
584

###

Experiment summary: AUCinfinity in ICR mouse at 3 mg/kg, iv measured upto 24 hrs by LC-MS/MS analysis
Type: ADME, organism-based
Settings: in vivo
Recorded metric: AUC(0-inf) (µg·h/mL)
Kindly answer with a numeric value in µg·h/mL, unit omitted.

Looking for the measured AUC(0-inf) of C=CC(=O)Nc1ccccc1-c1ccc(NC(=O)Cc2ccc(S(=O)(=O)CC)cc2)cc1Cl , can you help?
0.585

###

Experiment summary: Half life in ICR mouse at 3 mg/kg, iv measured upto 24 hrs by LC-MS/MS analysis
Format: ADME, organism-based
Settings: in vivo
Recorded metric: half-life (min)
Note: unit min is implicit; provide only the numeric part.

Query (compound): C=CC(=O)Nc1ccccc1-c1ccc(NC(=O)Cc2ccc(S(=O)(=O)CC)cc2)cc1Cl ; field requested: half-life
13.2

###

Target system: Nuclear receptor ROR-gamma (Homo sapiens, UniProt P51449)
Sequence (P51449 whole entry, the tested form may be a part): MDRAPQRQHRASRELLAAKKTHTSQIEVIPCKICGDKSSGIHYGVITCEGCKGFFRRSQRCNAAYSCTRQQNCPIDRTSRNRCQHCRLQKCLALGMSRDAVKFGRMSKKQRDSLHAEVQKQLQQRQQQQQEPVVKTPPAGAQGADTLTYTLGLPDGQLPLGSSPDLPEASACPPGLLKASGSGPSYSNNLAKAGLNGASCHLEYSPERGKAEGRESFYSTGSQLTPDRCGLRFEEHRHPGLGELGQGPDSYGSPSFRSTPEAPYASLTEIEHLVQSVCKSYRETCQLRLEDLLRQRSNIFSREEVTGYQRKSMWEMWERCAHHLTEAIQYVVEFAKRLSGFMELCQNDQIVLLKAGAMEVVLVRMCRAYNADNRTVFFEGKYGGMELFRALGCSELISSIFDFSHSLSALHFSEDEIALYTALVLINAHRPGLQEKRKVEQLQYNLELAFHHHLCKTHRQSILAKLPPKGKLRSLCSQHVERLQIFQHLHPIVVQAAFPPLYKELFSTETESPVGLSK
Experiment summary: Inhibition of Gal4-fused RORgamma LBD (unknown origin) expressed in HEK293T cells incubated for 48 hrs by luciferase based assay
Recorded metric: pIC50
pIC50 here is simply -log10 of the concentration when that concentration is written in mol/L.

Item under review: C=CC(=O)Nc1ccccc1-c1ccc(NC(=O)Cc2ccc(S(=O)(=O)CC)cc2)cc1Cl . Reported pIC50?
6.68

# iterate: C=CC(=O)Nc1ccccc1-c1ccc(NC(=O)Cc2ccc(S(=O)(=O)CC)cc2)cc1C(F)(F)F
5.66

Moving on to the next molecule: C=CC(=O)Nc1ccccc1-c1ccc(NC(=O)c2ccc(S(C)(=O)=O)cn2)cc1C
5.26

And what about the molecule CCC(=O)Nc1ccccc1-c1ccc(NC(=O)Cc2ccc(S(=O)(=O)CC)cc2)cc1C ?
5.53

Please answer likewise for C=CC(=O)Nc1ccccc1-c1ccc(NC(=O)Cc2ccccc2[N+](=O)[O-])cc1C
5.52

C=CC(=O)Nc1ccccc1-c1ccc(NS(=O)(=O)Cc2ccc([N+](=O)[O-])cc2)cc1C ?
5.18

Next: C=CC(=O)Nc1ccccc1-c1ccc(NC(=O)Cc2ccc(S(=O)(=O)CC)cc2)cc1F
5.96

Next: C=CC(=O)Nc1ccccc1-c1ccc(NC(=O)Cc2cccc(C#N)c2)cc1C
5.69

Continue with C=CC(=O)Nc1ccccc1-c1c(Cl)cc(NC(=O)Cc2ccc(S(=O)(=O)CC)cc2)cc1Cl
7.30

Moving on to the next molecule: C=CC(=O)Nc1ccccc1-c1ccc(NC(=O)c2cnc(C)nc2)cc1C
5.59

Now consider C=C(C)C(=O)Nc1ccccc1-c1ccc(NC(=O)Cc2ccc(S(=O)(=O)CC)cc2)cc1C and answer again.
5.95

Cool, now CCS(=O)(=O)c1ccc(CC(=O)Nc2ccc(-c3ccccc3NC(=O)CCl)c(C)c2)cc1
5.70

Request: C=CC(=O)Nc1ccccc1-c1ccc(NC(=O)Cc2ccc(C#N)cc2)cc1C
5.63

Please answer likewise for C=CC(=O)Nc1ccccc1-c1ccc(NC(=O)Cc2ccc(S(=O)(=O)CC)cc2)cn1
5.21

Next molecule up: C=CC(=O)Nc1ccccc1-c1ccc(NC(=O)c2ccc(OC)nc2)cc1C
5.33

Thanks! And C/C=C/C(=O)Nc1ccccc1-c1ccc(NC(=O)Cc2ccc(S(=O)(=O)CC)cc2)cc1C ?
5.79

Next: C=CC(=O)Nc1ccccc1-c1ccc(NC(=O)c2ccc(S(C)(=O)=O)cc2)cc1C
5.24

Same read-out for C=CC(=O)Nc1ccccc1-c1ccc(NC(=O)Cc2ccc(S(C)(=O)=O)cc2)cc1C ?
5.91

Cool, now C=CC(=O)Nc1ccccc1-c1ccc(NC(=O)Cc2ccc(S(=O)(=O)CC)cc2)cc1
5.39
